# subject.of.test: recombinant HIV-1 reverse transcriptase (rRT) (Human immunodeficiency virus type 1 group M subtype B)
# assay.name: Quan-T-RT cell-free assay of recombinant HIV-1 reverse transcriptase activity
# Type: biochemical
# test.context: Table 4, DABO compounds; purified recombinant HIV RT; read-out: IC50 [rRT]
compounds and their reported IC50
measured.property: IC50

>>> df
                                   compound  measured_property  assay_result
0  Cc1cn([C@H]2C[C@H](N=[N+]=[N-])[C@@H](CO)O2)c(=O)[nH]c1=O [AZT, reference compound]               IC50      > 100 µM
1         CSCSc1nc(Cc2ccccc2)c(C)c(=O)[nH]1               IC50       18.8 µM
2          CCc1c(Cc2ccccc2)nc(SCSC)[nH]c1=O               IC50        9.7 µM
3  CSCSc1nc(Cc2cc(C)cc(C)c2)c(C(C)C)c(=O)[nH]1               IC50        4.8 µM

###

# assay.name: Microculture Tetrazolium Assay (MTA) of cell viability
# Format: cell-based, human
# test.context: human; Table 7; concentration decreasing cellular proliferation by 50%
measured.property: IC50 at 7 days

                                   compound  assay_result
0  S=C(NCCc1ccccn1)Nc1ccc(Br)cn1 [Trovirdine, reference compound]      > 100 µM

###

compounds and their reported IC50
# Tested on: HIV-1 strain HTLVIIIB
# assay.name: p24 enzyme immunoassay of HIV replication in HTLVIIIB-infected peripheral blood mononuclear cells
# Assay type: cell-based
# test.context: Human immunodeficiency virus 1, PBMC; Table 6; read-out: IC50 p24
measured.property: IC50

In [3]: df
Out[3]:
                                  compound  measured_property  assay_result
0   S=C(NCCc1ccccc1Cl)Nc1ccc(Br)cn1 [II-3]               IC50        < 1 nM
1    Fc1ccccc1CCNC(=S)Nc1ccc(Br)cn1 [II-2]               IC50        < 1 nM
2  Fc1cccc(CCNC(=S)Nc2ccc(Br)cn2)c1 [II-5]               IC50        < 1 nM
